tested on: MS2 coat protein; assay: apparent KD of MS2 coat protein; designed switch direction (-1 OFF switch, 1 ON switch): -1; higher = weaker reporter binding; conditions: input ligand: none

{"Entry sequence": "ACGAUUGUAGGAUAUACUUGGAGAGUGUUCACAUAUUAACGACAUGAGGAUCACCCAUGUAGAAGGGCAAUCGG [Eternabot (L1) Solution 22] (Eterna round: R97, puzzle: Exclusion 2)", "Tested on": "MS2 coat protein", "apparent KD of MS2 coat protein": "0.421 µM"}
{"Entry sequence": "UACAUGAGGAUCACCCAUGUUUUGUCGUGUAUGGUAUUUAUCUAGGAUAUCAAUGUAUUUAUUCAUGAGAAGGAGAAUAUUAAU [JMF's solution 48] (Eterna round: R96, puzzle: Exclusion NG 3)", "Tested on": "MS2 coat protein", "apparent KD of MS2 coat protein": "0.0337 µM"}
{"Entry sequence": "GCCGAAAAAGUGAGGAUAUACCUAUGGAUACAUAGGUAGAAGGCACAUGAGGAUCACCCAUGUGUCCUAACGGC [Eli bmx4 4.29] (Eterna round: R97, puzzle: Brourd's mod of Exclusion 4)", "Tested on": "MS2 coat protein", "apparent KD of MS2 coat protein": "0.0152 µM"}
